Data provenance is ChEMBL document CHEMBL1139654.

# Organism: Gallus gallus
# assay.explanation: Antiangiogenic activity at chorioallantoic membrane of chick embryo at 5 nmol per egg
# Type: functional, organism-based
quantity: inhibition (%)
One number for each entry, in %.

The cases that follow already have their inhibition on record.
CCO[C@H]1O[C@@H]2O[C@@]3(C)CC[C@H]4[C@H](C)CC[C@@H]([C@H]1C)[C@@]24OO3 ... 29
C[C@H]1[C@@H](CCNC(=O)CC[C@H]2O[C@@H]3O[C@]4(C)CC[C@H]5[C@H](C)CC[C@@H]([C@H]2C)[C@@]35OO4)O[C@@H]2O[C@]3(C)CC[C@H]4[C@H](C)CC[C@@H]1[C@@]24OO3 ... 43
C[C@H]1[C@@H](O)O[C@@H]2O[C@@]3(C)CC[C@H]4[C@H](C)CC[C@@H]1[C@@]24OO3 ... 25
C[C@@H]1CC[C@H]2[C@@H](COC[C@H]3CO[C@@H]4O[C@]5(C)CC[C@H]6[C@H](C)CC[C@@H]3[C@@]46OO5)CO[C@@H]3OC4(C)CC[C@@H]1[C@]32OO4 (single isomer, unassigned) ... 71
C[C@@H]1CC[C@H]2[C@@H](CO)CO[C@@H]3O[C@]4(C)CC[C@@H]1[C@]32OO4 ... 29
CO[C@@H]1[C@H](OC(=O)/C=C/C=C/C=C/C=C/C(=O)O)CC[C@]2(CO2)[C@H]1[C@@]1(C)O[C@@H]1CC=C(C)C ... 57
C[C@@H]1CC[C@H]2[C@H](CBr)CO[C@@H]3O[C@]4(C)CC[C@@H]1[C@]32OO4 ... 75
C=C1CO[C@@H]2O[C@]3(C)CC[C@H]4[C@H](C)CC[C@@H]1[C@@]24OO3 ... 29

Could you tell me inhibition for each of these compounds? They are listed below.
1. C[C@@H]1CC[C@H]2[C@@H](C)C(=O)O[C@@H]3O[C@@]4(C)CC[C@@H]1[C@]32OO4
2. C[C@H]1[C@@H](CCc2ccc(C(=O)O)cc2)O[C@@H]2O[C@]3(C)CC[C@H]4[C@H](C)CC[C@@H]1[C@@]24OO3
3. CCS[C@H]1O[C@@H]2O[C@]3(C)CC[C@H]4[C@H](C)CC[C@@H]([C@H]1C)[C@@]24OO3

*A*
1. 25
2. 29
3. 17

Could you tell me inhibition for each of these compounds? They are listed below.
1. C[C@H]1[C@@H](CCBr)O[C@@H]2O[C@]3(C)CC[C@H]4[C@H](C)CC[C@@H]1[C@@]24OO3
2. C[C@@H]1CC[C@H]2[C@@H](C)CO[C@@H]3O[C@]4(C)CC[C@@H]1[C@]32OO4
3. CCCC[C@H]1O[C@@H]2O[C@]3(C)CC[C@H]4[C@H](C)CC[C@@H]([C@H]1C)[C@@]24OO3
4. C[C@H]1[C@@H](CCCC(=O)O)O[C@@H]2O[C@]3(C)CC[C@H]4[C@H](C)CC[C@@H]1[C@@]24OO3
5. C[C@H]1[C@@H](CCCOC(=O)CC(=O)OCCC[C@H]2O[C@@H]3O[C@]4(C)CC[C@H]5[C@H](C)CC[C@@H]([C@H]2C)[C@@]35OO4)O[C@@H]2O[C@]3(C)CC[C@H]4[C@H](C)CC[C@@H]1[C@@]24OO3
6. C[C@H]1[C@@H](CCN)O[C@@H]2O[C@]3(C)CC[C@H]4[C@H](C)CC[C@@H]1[C@@]24OO3
7. C[C@H]1[C@@H](CCO)O[C@@H]2O[C@]3(C)CC[C@H]4[C@H](C)CC[C@@H]1[C@@]24OO3
8. C[C@@H]1CC[C@H]2[C@@H](C(=O)O)CO[C@@H]3O[C@]4(C)CC[C@@H]1[C@]32OO4

*A*
1. 29
2. 29
3. 63
4. 50
5. 14
6. 29
7. 63
8. 20

*Q* Tell me measured inhibition for `O=C1CC[C@H](N2C(=O)c3ccccc3C2=O)C(=O)N1` please.
*A* 50
